- Test system: MALME-3M melanoma
- experimentDescription: NCI-60 one-dose screen, 48 h (100 = growth as untreated, 0 = no growth, -100 = all killed)
- settings: 10 µM unless noted
Compounds without any hit were thinned out: in the full panel of roughly 83,000, 20% have a hit.
Record Satisfied whenever growth is at 60% or higher; record Not satisfied when lower.

Some solved cases for reference:
COc1cc([N+](=O)[O-])c2nc(C)ccc2c1[N+](=O)[O-]    Satisfied
CC(C)[C@@H]1NC(=O)[C@]2(C)CSC(=N2)c2csc(n2)CNC(=O)C[C@@H](/C=C/CCS)OC1=O    Not satisfied
COC(=O)CCC1=C(C)c2cc3[n-]c(cc4nc(cc5[n-]c(cc1n2)c(CCC(=O)OC)c5C)C=C4C)cc3C.[Cd+2]    Not satisfied
CCOC(=O)N1CC1    Satisfied

Exercise: Check if growth >= 60% (inclusive). Item: C[C@]12CCc3sc(-c4ccccc4O)nc3C1=CC[C@@H]1[C@@H]2CC[C@]2(C)C(=O)CC[C@@H]12
Solution: Satisfied

Exercise: For C[C@@H]1C[C@@]2(C)[C@@H](CC[C@@H]3[C@@H]2CC[C@]2(C)C(=O)CC[C@@H]32)CC1=O then?
Solution: Satisfied

Exercise: And what about the compound C[Se]C(=O)c1ccccc1OC(C)=O ?
Solution: Satisfied

====

- Tested on: SK-MEL-28 melanoma
- experimentDescription: NCI-60 one-dose screen, 48 h
- settings: 10 µM unless noted
Compounds without any hit were thinned out: in the full panel of roughly 83,000, 20% have a hit. Calls of active or inactive are those of the source. Rule for the calls: active = growth percent below 10; inactive = the rest.
Bench note: report the call from active, inactive

Below, 4 compounds whose answers are already recorded.
O=C1C2C(C(=O)[N]1[Hg][c]1cccs1)C1(Cl)C(Cl)=C(Cl)C2(Cl)C1(Cl)Cl (stereo not given)    active
COc1ccc2c(c1)c(-c1nc(-c3cn(C)c4ncccc34)cs1)cn2CCN1CCOCC1    inactive
O=[N+]([O-])/C=C\c1ccc(Cl)c(Cl)c1    inactive
NC(N)=N/N=C\c1c[nH]c2ccc(Br)cc12    inactive

Consider the record given below.
Exercise: I would be grateful if you could indicate the recorded call for Cc1ccc(C(=O)NCCCOc2ccc(N)cc2Cl)cc1S(=O)(=O)F .
Solution: inactive

====

- Test system: RPMI-8226 leukemia
- experimentDescription: NCI-60 one-dose screen, 48 h
- settings: 10 µM unless noted
About 83,000 compounds went through this panel and 20% of them were active in at least one assay; those are over-represented in the sample as a whole. The source made the active and inactive calls. The calls were made as follows: active = growth percent below 10; inactive = the rest.
Give one outcome, nothing more. List: Yes for active, No for inactive

Consider the worked cases shown below.
COC(=O)CCc1c[nH]c2ccc(N(CCCl)CCCl)cc12    No
Cc1cccc(N2CCN(C(C)C#N)CC2)c1 (stereo not drawn)    No
COC(=O)[C@@H](C)C[C@H](Cc1ccccc1)NC(=O)c1csc([C@@H](C[C@H](C(C)C)N(C)C(=O)[C@H](C)NC(=O)[C@H]2CCCN2C)OC(C)=O)n1    Yes
C[C@@H]1O[C@@H](O[C@H]2C[C@@H](O)[C@]3(CO)C4C(CC[C@]3(O)C2)[C@@]2(O)CC[C@H](C3=CC(=O)OC3)[C@@]2(C)C[C@H]4O)[C@H](O)[C@H](O)[C@H]1O (stereo partly drawn)    No
COC(=O)[C@H](C[C@H](Cc1ccccc1)NC(=O)c1csc([C@@H](C[C@H](C(C)C)N(C)C(=O)[C@@H](NC(=O)[C@H]2CCCCN2C)C(C)C)OC(C)=O)n1)NC(=O)OCc1ccccc1    Yes

Exercise: Which outcome did this test record for the compound NC(N)=N/N=C\c1c[nH]c2ccc(Br)cc12 ?
Solution: No

Exercise: Next compound up: CN1C(=O)C23CC4(C56CC78SSC(CO)(C(=O)N7C5Nc5ccccc56)N(C)C8=O)c5ccccc5NC4N2C(=O)C1(CO)SS3 (stereo not drawn)
Solution: Yes

Exercise: And then O=C(N/N=C\c1ccc(N(CCCl)CCCl)cc1Cl)c1cccnc1 , what is it?
Solution: No

====

- Test system: SF-539 CNS
- experimentDescription: NCI-60 one-dose screen, 48 h
- settings: 10 µM unless noted
About 83,000 compounds went through this panel and 20% of them were active in at least one assay; those are over-represented in the sample as a whole. The source made the active and inactive calls. How the source made its calls: active means growth percent below 10; inactive means the rest.
Returns: one label drawn from 1.0 for active, 0.0 for inactive

O=[N+]([O-])c1cc([N+](=O)[O-])c(Cl)cc1Cl    1.0
CC1CCCC(C[N+](C)(C)C)C1=O (stereo unspecified)    0.0
C=CC[Se]C(=O)c1ccccc1OC(C)=O    1.0
CCCCNC(c1ccc(Cl)cc1)C(O)c1ccc(Cl)cc1 (stereo unspecified)    0.0
CC1=C(CNO)C2=C(C)C3(CC3)[C@@](C)(O)C(=O)C2=C1    1.0
COc1ccc(/C(C)=C(\c2ccc(OCCN3CCOCC3)cc2)c2ccc(OC(=O)Cc3ccccc3)cc2)cc1    0.0
CCCCC1(CCC)C(=O)NC(=S)NC1=O    0.0
CCCCCSC1C2C(=O)C(Br)=CC13CCNc1c(O)c4c5c(c13)=[N+]2CCC=5C=N4 (stereo unspecified)    1.0
COC(=O)CC[C@H](Cc1ccccc1)NC(=O)c1csc([C@@H](C[C@H](C(C)C)N(C)C(=O)[C@@H](NC(=O)[C@H]2CCCCN2C)C(C)C)OC(C)=O)n1    1.0
CC[C@H](C)[C@H](NC(=O)[C@H]1CCCCN1C)C(=O)N(C)[C@H](C[C@@H](O)c1nc(C(=O)N[C@@H](Cc2ccccc2)C[C@H](C)C(=O)O)cs1)C(C)C    0.0

Exercise: Dear colleague, could you share the recorded outcome for CN[C@@]1(c2ccccc2Cl)CCCC[C@@H]1NCC1CCCO1 (stereo partly specified) when you have a moment?
Solution: 0.0

Exercise: Continue with N/C(=N/N=C/c1ccncc1)N[N+](=O)[O-]
Solution: 0.0

====

Measured growth, listed per entry for reference.
- Test system: EKVX NSCLC
- experimentDescription: NCI-60 one-dose screen, 48 h (100 = growth as untreated, 0 = no growth, -100 = all killed)
- settings: 10 µM unless noted
Compounds without any hit were thinned out: in the full panel of roughly 83,000, 20% have a hit.
Answer with a number only, understood to be in %.

O=C1C(N2CC2)=C(N2CC2)C(=O)C(N2CC2)=C1N1CC1    22.9
CC12CCC3C(C=CC4=C(N)C(=O)CCC43C)C1CCC2=O (centres undefined)    98
CC(=O)OCc1cc[c]([Hg][Cl])o1    78.8

For the next question, use this compound.
Exercise: Fill in: growth of CCOC(=O)c1c(C)n(Cc2ccccc2)c2cc(CN(C)C)c(O)cc12 is ___
Solution: 64.1

====

- System: IGROV1 ovarian
- experimentDescription: NCI-60 one-dose screen, 48 h
- settings: 10 µM unless noted
Compounds without any hit were thinned out: in the full panel of roughly 83,000, 20% have a hit. Calls of active or inactive are those of the source. The calls were made as follows: active = growth percent below 10; inactive = the rest.
// classify into yes for active, no for inactive

As a guide, the following entries are already answered.
CN(C)CC(C(=O)Cc1ccccc1)c1ccccc1 (stereo not given)    no
COc1ccc(Nc2ccc([N+](=O)[O-])cc2[N+](=O)[O-])cc1CN(CCCl)CCCl    no
O=NN1CCCc2cccc(O)c21    no
Cc1cc(NC(=O)NCc2ccc(N3C(N)=NC(N)=NC3(C)C)cc2)ccc1S(=O)(=O)F    yes
C/C(=C\c1ccn(-c2ccc(N)cc2C(F)(F)F)n1)[C@@H]1C[C@@H]2O[C@]2(C)CCC[C@H](C)[C@H](O)[C@@H](C)C(=O)C(C)(C)[C@@H](O)CC(=O)O1    no
CCn1cnc2c(Nc3cccc(Cl)c3)nc(N[C@@H]3CCCC[C@@H]3N)nc21    yes
Cc1c(O)c(CN(CCCl)CCCl)cc(CN(CCCl)CCCl)c1O    no
CC12CCC=CC1CCC1C2CCC2(C)C(c3ccc(=O)oc3)CCC12O (stereo not given)    yes
COc1ccc(C(=O)c2cc(OC)c(OC)c(OC)c2)cc1OC(C)=O    no
Cn1cc(-c2csc(-c3cn(CCN4CCOCC4)c4ccc(F)cc34)n2)c2cccnc21    no

Exercise: Given COC(=O)[C@@H](C)C[C@H](Cc1ccccc1)NC(=O)c1csc([C@@H](C[C@H](C(C)C)N(C)C(=O)[C@@H](NC(=O)[C@H]2CCCCN2C)C(C(F)(F)F)C(F)(F)F)OC(C)=O)n1 , state the outcome it received in this test.
Solution: no

Exercise: Also, CC(=O)O[C@H](C[C@H](C(C)C)N(C)C(=O)[C@@H](NC(=O)[C@H]1CCCN1C)C(C)C)c1nc(C(=O)N[C@@H](Cc2ccccc2)C[C@H](C)C(=O)O)c(C)s1 please.
Solution: no
